# Tested on: EGFR (Del19/T790M/C797S) in H1975-clone #28 cells
# assay details: Cell degradation of EGFR, HTRF assay, H1975-clone #28 cells
# Format: cell-based
# settings: H1975-clone #28 (Del19/T790M/C797S, homozygous), 16 h treatment, maximum percentage of inhibition (degradation)
# Description: BaF3-LTC (L858R/T790M/C797S) cells are treated with compounds diluted in 0.2% DMSO cell culture medium and incubate for 16 h, 37° C., 5% CO2. H1975-#28 cells are treated with compounds diluted in 0.2% DMSO cell culture medium on day 2, incubate for 16 h, 37° C., 5% CO2, the final concentration of compounds in all assay is start with 10 uM, 4-fold dilution, total 8 doses were included. […] The inhibition (degradation) percentage of the compound was calculated by the following equation: […]
Assign Dmax H1975 #28 to each entry below.
Provide the reading as a plain figure in %.

Query the reported Dmax H1975 #28 for EGFR (Del19/T790M/C797S) in H1975-clone #28 cells; item: CCc1cc(Nc2ncc(Br)c(Nc3ccccc3P3(=O)CCCC3)n2)c(OC)cc1N1CCC(N2CCN(CCc3cc(F)c(C4CCC(=O)NC4=O)c(F)c3)CC2)CC1 (stereo not shown) [Example 147]
82.21

Query the reported Dmax H1975 #28 for EGFR (Del19/T790M/C797S) in H1975-clone #28 cells; item: CCc1cc(Nc2ncc(Br)c(Nc3ccc4nc(C)ccc4c3P3(=O)CCCC3)n2)c(OC)cc1N1CCC(N2CCN(CCc3ccc4c(c3)oc(=O)n4C3CCC(=O)NC3=O)CC2)CC1 (stereo not shown) [Example 71]
72.97

Query the reported Dmax H1975 #28 for EGFR (Del19/T790M/C797S) in H1975-clone #28 cells; item: CCc1cc(Nc2ncc(Br)c(Nc3ccc4nc(C)ccc4c3P3(=O)CC=CC3)n2)c(OC)cc1N1CCC(N2CCN(CCc3ccc4c(c3)oc(=O)n4C3CCC(=O)NC3=O)CC2)CC1 (stereo not shown) [Example 145]
75.97

Query the reported Dmax H1975 #28 for EGFR (Del19/T790M/C797S) in H1975-clone #28 cells; item: CCc1cc(Nc2ncc(Br)c(Nc3ccccc3P3(=O)CCCC3)n2)c(OC)cc1N1CCC(N2CCN(C(=O)[C@@H]3CCN(c4cc(F)c(C5CCC(=O)NC5=O)c(F)c4)C3)CC2)CC1 (stereo partly shown) [Example 111]
87.16

Query the reported Dmax H1975 #28 for EGFR (Del19/T790M/C797S) in H1975-clone #28 cells; item: CCc1cc(Nc2ncc(Br)c(Nc3ccccc3P3(=O)CCCC3)n2)c(OC)cc1N1CCC(N2CCN(C(=O)C3CN(c4cc(F)c(C5CCC(=O)NC5=O)c(F)c4)C3)CC2)CC1 (stereo not shown) [Example 148]
78.19

Query the reported Dmax H1975 #28 for EGFR (Del19/T790M/C797S) in H1975-clone #28 cells; item: CCc1cc(Nc2ncc(Br)c(Nc3ccc4nc(C)ccc4c3P3(=O)CCCC3)n2)c(OC)cc1N1CCC(N2CCN(CCc3cccc4c3n(C)c(=O)n4C3CCC(=O)NC3=O)CC2)CC1 (stereo not shown) [Example 68]
85.88

Query the reported Dmax H1975 #28 for EGFR (Del19/T790M/C797S) in H1975-clone #28 cells; item: CCc1cc(Nc2ncc(Br)c(Nc3ccc4nc(C)ccc4c3P3(=O)CCCC3)n2)c(OC)cc1N1CCC(N2CCN(CCc3cccc4c3C(C)(C)C(=O)N4C3CCC(=O)NC3=O)CC2)CC1 (stereo not shown) [Example 73]
78.13
